# System: Sclerotinia sclerotiorum
# PROTOCOL TEXT: Synergistic Growth Inhibition Assay (MIC and FIC index, 96-well, resazurin)
# Type: cell-based
# CONDITIONS: Sclerotinia sclerotiorum, […], Table 40; Compound B alone; 7 days incubation; read-out: MIC (B)
MIC by entry:
QUANTITY KIND: MIC

COMPOUND | TESTED TARGET | ENDPOINT RESULT
C=CCCCCCCCC(=O)O [9-Decenoic acid, 9-decenoic acid] | Sclerotinia sclerotiorum | 78.1 µg/mL
CCCCCCC/C=C/C(=O)O [Trans-2-decenoic acid, trans-2-decenoic acid] | Sclerotinia sclerotiorum | 19.5 µg/mL
CCCCCCC=CCC(=O)O [3-Decenoic acid, 3-decenoic acid] | Sclerotinia sclerotiorum | 78.1 µg/mL
CCCCCC/C=C/C(=O)O [Trans-2-nonenoic acid] | Sclerotinia sclerotiorum | 19.5 µg/mL

* * *

Below, each of the compounds is paired with its reported MIC value.
# System: Alternaria solani
# PROTOCOL TEXT: Synergistic Growth Inhibition Assay (MIC and FIC index, 96-well, resazurin)
# Format: cell-based
# CONDITIONS: Alternaria solani, […], Table 60; Compound B alone; 7 days incubation; read-out: MIC (B)

COMPOUND | TESTED TARGET | UNIT TAG | MIC
CCCCCCCCC(=O)O [Nonanoic acid, nonanoic acid] | Alternaria solani | µg/mL | 156
CCCCC=CCC(=O)O [3-Octenoic acid, 3-octenoic acid] | Alternaria solani | µg/mL | 156
CCCC=CCC(=O)O [3-Heptenoic acid] | Alternaria solani | µg/mL | 312
C=CCCCCCCCC(=O)O [9-Decenoic acid, 9-decenoic acid] | Alternaria solani | µg/mL | 39.1

* * *

# Tested on: Fusarium oxysporum
# PROTOCOL TEXT: Synergistic Growth Inhibition Assay (MIC and FIC index, 96-well, resazurin)
# Format: cell-based
# CONDITIONS: Fusarium oxysporum, 48 h, Table 30; Compound B alone; 48 hours incubation; read-out: MIC (B)

COMPOUND | UNIT TAG | MIC
CCCCCCC/C=C/C(=O)O [Trans-2-decenoic acid, trans-2-decenoic acid] | µg/mL | 78.1
CCCCC/C=C/C(=O)O [Trans-2-octenoic acid, trans-2-octenoic acid] | µg/mL | 156
CCCC/C=C/CC(=O)O [Trans-3-octenoic acid] | µg/mL | 156
CC=CCCC(=O)O | µg/mL | 312
CCCC=CCC(=O)O | µg/mL | 156
CC/C=C/CC(=O)O [Trans-3-hexenoic acid, trans-3-hexenoic acid] | µg/mL | 312
CCCCCC/C=C/C(=O)O [Trans-2-nonenoic acid] | µg/mL | 312
C=CCCCCCCCC(=O)O | µg/mL | 156
CCCCC=CCC(=O)O | µg/mL | 156
C=CCCCCCC(=O)O | µg/mL | 312

* * *

# Tested on: Fusarium oxysporum
# PROTOCOL TEXT: Synergistic Growth Inhibition Assay (MIC and FIC index, 96-well, resazurin)
# Assay type: cell-based
# CONDITIONS: Fusarium oxysporum, 48 h, Table 32; Compound B alone; 48 hours incubation; read-out: MIC (B)
QUANTITY KIND: MIC (µg/mL)

COMPOUND | ENDPOINT RESULT
CCCCC/C=C/C(=O)O [Trans-2-octenoic acid, trans-2-octenoic acid] | 312
CCCC/C=C/CC(=O)O [Trans-3-octenoic acid] | 156
CCCCC=CCC(=O)O [3-Octenoic acid, 3-octenoic acid] | 156
C=CCCCCCC(=O)O [7-Octenoic acid] | 156
CCCCCCCC/C=C/C(=O)O [Trans-2-undecenoic acid] | 156
CCCCCC=CCC(=O)O [3-Nonenoic acid] | 156
C=CCCCCCCCC(=O)O [9-Decenoic acid, 9-decenoic acid] | 78.1
CCCCCCC/C=C/C(=O)O [Trans-2-decenoic acid, trans-2-decenoic acid] | 156
CCCCCC/C=C/C(=O)O [Trans-2-nonenoic acid] | 312

* * *

# MIC values compiled below
# Tested on: Alternaria solani
# PROTOCOL TEXT: Synergistic Growth Inhibition Assay (MIC and FIC index, 96-well, resazurin)
# Format: cell-based
# CONDITIONS: Alternaria solani, […], Compound B alone; 7 days incubation; read-out: MIC (B)
QUANTITY KIND: MIC (µg/mL)

COMPOUND | QUANTITY KIND | ENDPOINT RESULT
CC(C)CC(=O)O | MIC | 312
CC/C=C\CC(=O)O [Cis-3-hexenoic acid] | MIC | 312
CCCC(O)CC(=O)O (stereo not drawn) [3-Hydroxyhexanoic acid, 3-hydroxyhexanoic acid] | MIC | 2500
CCC(C)CCC(=O)O (stereo not drawn) | MIC | 312
CC(O)CC(=O)O (stereo not drawn) [3-Hydroxybutyric acid, 3-hydroxybutyric acid] | MIC | 5000
CCCCCCC(=O)O | MIC | 156

* * *

# Tested on: Botrytis cinerea
# PROTOCOL TEXT: Synergistic Growth Inhibition Assay (MIC and FIC index, 96-well, resazurin)
# Type: cell-based
# CONDITIONS: Botrytis cinerea, 48 h, Table 44; Compound B alone; 48 hours incubation; read-out: MIC (B)

COMPOUND | TESTED TARGET | MIC
CCCCCC/C=C/C(=O)O [Trans-2-nonenoic acid] | Botrytis cinerea | 39.1 µg/mL
CC/C=C/CC(=O)O [Trans-3-hexenoic acid, trans-3-hexenoic acid] | Botrytis cinerea | 156 µg/mL
C/C=C/C=C/C(=O)O [(2E,4E)-2,4-hexadienoic acid] | Botrytis cinerea | 62.5 µg/mL
CCC/C=C/C(=O)O [Trans-2-hexenoic acid, trans-2-hexenoic acid] | Botrytis cinerea | 39.1 µg/mL
C=CCCCCCCCC(=O)O [9-Decenoic acid, 9-decenoic acid] | Botrytis cinerea | 78.1 µg/mL
C=CCCCC(=O)O [5-Hexenoic acid] | Botrytis cinerea | 78.1 µg/mL
CCCCCC=CCC(=O)O [3-Nonenoic acid] | Botrytis cinerea | 78.1 µg/mL
CCCC=CCC(=O)O [3-Heptenoic acid] | Botrytis cinerea | 78.1 µg/mL
CCCCCCC/C=C/C(=O)O [Trans-2-decenoic acid, trans-2-decenoic acid] | Botrytis cinerea | 78.1 µg/mL
CCCCCCCC/C=C/C(=O)O [Trans-2-undecenoic acid] | Botrytis cinerea | 78.1 µg/mL
CCCCCCC=CCC(=O)O [3-Decenoic acid, 3-decenoic acid] | Botrytis cinerea | 78.1 µg/mL
